Test system: M21
procedure-details: Growth inhibition of human M21 cells
Type: functional
Assignment: determine reported log10 of GI50 for the given compounds.
// stored as log10 of GI50 expressed in µM

Lab note: need log10 of GI50 with M21 for entry `COc1ccc(CCc2ccc(NC(=O)NCCCl)cc2)cc1O` , please look it up. 1.21

Provide the documented log10 of GI50 with M21 as the system for `O=C(NCCCl)Nc1cccc(CCCCCO)c1` -0.57

Give log10 of GI50 (M21) of the following compound: `COc1ccc(/C=C/c2cccc(NC(=O)NCCCl)c2)cc1O` 1.36

Enter reported log10 of GI50 observed with M21 for `COc1ccc(/C=C/c2ccc(NC(=O)NCCCl)cc2)cc1O` 0.92

Hello, I am looking for reported log10 of GI50 with M21 for COc1ccc(/C=C\c2cc(OC)c(OC)c(OC)c2)cc1O [COMBRETASTATIN A4] . Could you help? -2.70

Query log10 of GI50 on M21 for `COc1ccc(CCc2cccc(NC(=O)NCCCl)c2)cc1O` 0.67

Notebook: pull reported log10 of GI50 for M21, entry `COc1ccc(/C=C\c2ccc(NC(=O)NCCCl)cc2)cc1O` -0.01

Find the measured log10 of GI50: item `COc1ccc(/C=C\c2cccc(NC(=O)NCCCl)c2)cc1O` , target or system M21. 0.60

* * *

System: M21
procedure-details: Cell cycle arrest in human M21 cells assessed as accumulation at G1 phase at 80 uM after 24 hrs
Format: functional
Would you mind telling me the reported Activity of each entry?
Lab book: enter the figure in %, no units written.

Notebook: pull reported Activity for M21, entry `COc1ccc(CCc2ccc(NC(=O)NCCCl)cc2)cc1O` 15.5

# query: Activity | item `COc1ccc(CCc2cccc(NC(=O)NCCCl)c2)cc1O` | system: M21 15.2

Missing value: Activity, M21, entry `COc1ccc(/C=C/c2ccc(NC(=O)NCCCl)cc2)cc1O` . Fill in? 38.8

Lab note: need Activity with M21 for entry `COc1ccc(/C=C/c2cccc(NC(=O)NCCCl)c2)cc1O` , please look it up. 38.1

What Activity appears in the records for this molecule with M21? `COc1ccc(/C=C\c2cccc(NC(=O)NCCCl)c2)cc1O` 18.4

* * *

System: M21
procedure-details: Cell cycle arrest in human M21 cells assessed as accumulation at S phase at 200 uM after 24 hrs
Format: functional
Would you kindly list Activity for each of these molecules?
Express your answer in %, writing the number without its unit.

Kindly state the measured Activity obtained for `COc1ccc(CCc2cccc(NC(=O)NCCCl)c2)cc1O` with M21. 15.7

Lab note: need Activity with M21 for entry `COc1ccc(/C=C/c2cccc(NC(=O)NCCCl)c2)cc1O` , please look it up. 19

Lab note: need Activity with M21 for entry `COc1ccc(/C=C\c2cccc(NC(=O)NCCCl)c2)cc1O` , please look it up. 10.5

// lookup Activity | system=M21 | key= `COc1ccc(CCc2ccc(NC(=O)NCCCl)cc2)cc1O` 16.3

Please tell me: Activity of `COc1ccc(/C=C/c2ccc(NC(=O)NCCCl)cc2)cc1O` , system M21? 21.9

* * *

Tested on: M21
procedure-details: Cell cycle arrest in human M21 cells assessed as accumulation at S phase at 24 uM after 24 hrs
Type: functional
readout-name: Activity (%)
Write down the numeric answer in % and omit the unit.

Item under review: `COc1ccc(/C=C/c2ccc(NC(=O)NCCCl)cc2)cc1O` . Reported Activity? 12.9

For the compound shown here, `COc1ccc(CCc2ccc(NC(=O)NCCCl)cc2)cc1O` , give the reported Activity. 9.9

Endpoint output: Activity of `COc1ccc(CCc2cccc(NC(=O)NCCCl)c2)cc1O` . Value? 20.7

I'd like to know its Activity. The compound in question is `COc1ccc(/C=C/c2cccc(NC(=O)NCCCl)c2)cc1O` 16.6

Name the reported Activity value associated with the compound `COc1ccc(/C=C\c2cccc(NC(=O)NCCCl)c2)cc1O` 12.3

* * *

Would you mind telling me the reported Activity of each entry?
Tested on: M21
procedure-details: Induction of apoptosis in human M21 cells at 80 uM after 24 hrs
Type: functional
For clarity, give the value followed by its unit.

# Activity lookup, item `COc1ccc(CCc2ccc(NC(=O)NCCCl)cc2)cc1O` 2.3%

Any idea what Activity was measured for `COc1ccc(/C=C/c2cccc(NC(=O)NCCCl)c2)cc1O` ? 5.3%

Given the molecule `COc1ccc(/C=C\c2cccc(NC(=O)NCCCl)c2)cc1O` , what is its reported Activity? 15%

Which Activity value belongs to `COc1ccc(CCc2cccc(NC(=O)NCCCl)c2)cc1O` ? 18.7%

# Activity lookup, item `COc1ccc(/C=C/c2ccc(NC(=O)NCCCl)cc2)cc1O` 5.5%

Attribution: ChEMBL document CHEMBL1139148
